- system: T1, rHuman HGF R/c-MET/Fc Chimera, CF (human, UniProt P08581 25-932)
- T1 construct: Bought from R&D Systems; also called HGF R/Fc; hepatocyte growth factor receptor; not shown: Fc of the bought chimera
- T1 sequence (P08581 25-932, change not shown): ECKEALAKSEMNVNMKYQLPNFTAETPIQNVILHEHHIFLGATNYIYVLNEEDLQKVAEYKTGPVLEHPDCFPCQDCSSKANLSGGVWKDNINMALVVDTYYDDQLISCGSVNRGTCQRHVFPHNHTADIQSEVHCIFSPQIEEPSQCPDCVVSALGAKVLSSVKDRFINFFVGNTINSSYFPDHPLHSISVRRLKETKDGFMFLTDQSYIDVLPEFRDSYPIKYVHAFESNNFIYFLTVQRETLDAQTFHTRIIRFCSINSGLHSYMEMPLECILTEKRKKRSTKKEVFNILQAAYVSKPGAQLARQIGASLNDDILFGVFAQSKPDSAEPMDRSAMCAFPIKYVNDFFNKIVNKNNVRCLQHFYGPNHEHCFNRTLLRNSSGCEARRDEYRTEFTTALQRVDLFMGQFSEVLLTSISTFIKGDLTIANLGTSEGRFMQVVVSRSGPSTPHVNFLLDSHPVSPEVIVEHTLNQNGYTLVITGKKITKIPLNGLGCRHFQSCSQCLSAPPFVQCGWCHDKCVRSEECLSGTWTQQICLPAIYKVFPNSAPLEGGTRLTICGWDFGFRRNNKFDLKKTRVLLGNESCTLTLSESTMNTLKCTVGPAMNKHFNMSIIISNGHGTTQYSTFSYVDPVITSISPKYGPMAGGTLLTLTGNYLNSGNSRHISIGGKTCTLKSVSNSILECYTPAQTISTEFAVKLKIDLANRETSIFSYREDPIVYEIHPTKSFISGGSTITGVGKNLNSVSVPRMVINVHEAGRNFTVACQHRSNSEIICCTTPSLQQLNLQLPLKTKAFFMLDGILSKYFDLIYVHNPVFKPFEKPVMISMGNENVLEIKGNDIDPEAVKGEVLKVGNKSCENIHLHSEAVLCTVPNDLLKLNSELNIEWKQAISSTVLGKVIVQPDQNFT
- assay remarks: ECL Multispot (MSD) assay; antigen spotted on plate, Fab in solution;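 also: fab bound 1 h at 20 °C, detected by TAG-labelled antibody electrochemiluminescence, signal relative to each well's blank, ratio of 4 or more marks a hit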
Catalogue of ECL signal values
Answer using only a numeral; do not append any unit.

binder: Fab VH1-46_IGHD6-6*01_IGHJ1*01 S102A/S103P/S104F/H111F (APFF) & L6_IGKJ1*01 S28A (Fab, V domains shown, Fab made in E. coli; the variable domains were cloned into Plasmid A (CH1, His and Flag tags) and Plasmid C (kappa CL); also called APFF / S28A) VH: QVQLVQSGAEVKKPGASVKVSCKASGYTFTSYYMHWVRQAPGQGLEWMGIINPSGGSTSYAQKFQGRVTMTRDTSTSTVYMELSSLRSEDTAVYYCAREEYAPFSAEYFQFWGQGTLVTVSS VL: EIVLTQSPATLSLSPGERATLSCRASQAVSSYLAWYQQKPGQAPRLLIYDASNRATGIPARFSGSGSGTDFTLTISSLEPEDFAVYYCQQRSNWPPWTFGQGTKVEIKR
endpoint name: ECL signal
recorded measurement: 377
--
binder: Fab VH1-46_IGHD6-6*01_IGHJ1*01 S102A/S103P/S104F/H111F (APFF) & L6_IGKJ1*01 S28L (Fab, V domains shown, Fab made in E. coli; the variable domains were cloned into Plasmid A (CH1, His and Flag tags) and Plasmid C (kappa CL); also called APFF / S28L) VH: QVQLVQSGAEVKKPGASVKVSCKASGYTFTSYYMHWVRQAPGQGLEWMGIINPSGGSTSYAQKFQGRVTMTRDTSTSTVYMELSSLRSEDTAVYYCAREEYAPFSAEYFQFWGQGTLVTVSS VL: EIVLTQSPATLSLSPGERATLSCRASQLVSSYLAWYQQKPGQAPRLLIYDASNRATGIPARFSGSGSGTDFTLTISSLEPEDFAVYYCQQRSNWPPWTFGQGTKVEIKR
endpoint name: ECL signal
recorded measurement: 317

# context switch: different binder, same ECL signal
For Fab VH1-46_IGHD6-6*01_IGHJ1*01 S102A/S103P/S104F/H111F (APFF) & L6_IGKJ1*01 S28K (Fab, V domains shown, Fab made in E. coli; the variable domains were cloned into Plasmid A (CH1, His and Flag tags) and Plasmid C (kappa CL); also called APFF / S28K) VH: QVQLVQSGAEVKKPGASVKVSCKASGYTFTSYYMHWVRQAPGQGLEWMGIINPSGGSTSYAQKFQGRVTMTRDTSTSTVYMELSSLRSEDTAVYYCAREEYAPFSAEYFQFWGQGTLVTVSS VL: EIVLTQSPATLSLSPGERATLSCRASQKVSSYLAWYQQKPGQAPRLLIYDASNRATGIPARFSGSGSGTDFTLTISSLEPEDFAVYYCQQRSNWPPWTFGQGTKVEIKR , what is its reported ECL signal?
355
